- assayedSystem: Mu-type opioid receptor (Rattus norvegicus, UniProt P33535)
- Sequence (P33535 whole entry): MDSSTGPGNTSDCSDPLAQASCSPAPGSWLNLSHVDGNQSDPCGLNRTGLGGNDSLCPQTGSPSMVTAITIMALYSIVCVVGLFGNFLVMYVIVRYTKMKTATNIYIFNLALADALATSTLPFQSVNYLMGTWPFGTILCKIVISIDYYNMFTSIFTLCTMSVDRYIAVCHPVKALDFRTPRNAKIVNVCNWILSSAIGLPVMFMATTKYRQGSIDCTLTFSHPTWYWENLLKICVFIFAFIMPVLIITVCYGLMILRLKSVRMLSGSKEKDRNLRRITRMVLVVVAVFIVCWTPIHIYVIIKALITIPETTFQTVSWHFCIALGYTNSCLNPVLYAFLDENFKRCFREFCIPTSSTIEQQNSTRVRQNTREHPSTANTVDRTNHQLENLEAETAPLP
# Ki values compiled below
The reply should be a number in nM, with the unit left off.

Record CN1CC[C@@]2(c3cccc(O)c3)CC(=O)/C(=C/c3ccccc3)[C@@H]1C2 has Mu-type opioid receptor (Rattus norvegicus, UniProt P33535) Ki equal to 392

Considering CN1CC[C@@]2(c3cccc(O)c3)CC(=O)/C(=C/c3ccc(Cl)c(Cl)c3)[C@@H]1C2 , its Ki with Mu-type opioid receptor (Rattus norvegicus, UniProt P33535) was recorded as 45.1

Value (Ki, Mu-type opioid receptor (Rattus norvegicus, UniProt P33535)) for record CN1CCC2(c3cccc(O)c3)CC(=O)/C(=C/c3ccc(Cl)c(Cl)c3)C1C2 (centres undefined) = 6.1

Entry CN1CC[C@@]2(c3cccc(O)c3)CC(=O)/C(=C/c3ccc(Cl)c(Cl)c3)[C@H]1C2 ; assay system Mu-type opioid receptor (Rattus norvegicus, UniProt P33535); Ki recorded at 4.5

Log: Mu-type opioid receptor (Rattus norvegicus, UniProt P33535), compound CN1CCC2(c3cccc(O)c3)CC(=O)CC1C2 (stereo in doubt) , Ki = 8.7

Test item CN1CCC2(c3cccc(O)c3)CC(=O)CC1C2 (stereo in doubt; 4) ; Mu-type opioid receptor (Rattus norvegicus, UniProt P33535); reported Ki was 5.5

Known value: Mu-type opioid receptor (Rattus norvegicus, UniProt P33535) Ki of the compound CN1CC[C@]2(c3cccc(O)c3)CC(=O)/C(=C/c3ccccc3)[C@H]1C2 equals 37.6

The observed Ki for CN1CCC2(c3cccc(O)c3)CC(=O)/C(=C/c3ccccc3)C1C2 (centres undefined) when tested with Mu-type opioid receptor (Rattus norvegicus, UniProt P33535) stands at 33.9
